Values were extracted from the supplement of paper PMC9694430.

# Test system: LOC_OS02G07810-cb001;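 also: purified Escherichia coli-expressed rice kinase domain construct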
# experimental_protocol: thermal shift delta Tm vs DMSO control; higher = stronger stabilization (binding)
# measurement_parameters: 12.5 µM; protein concentration 2 µM
Each item that follows carries a reported thermal shift delta Tm.

{"columns": ["compound", "thermal shift delta Tm [°C]"],
 "data": [
  ["COc1cc2ncnc(Nc3cccc(Cl)c3F)c2cc1OC(=O)N1CCN(C)C[C@H]1C", 0.42],
  ["Cn1c(Nc2ccc(C(F)(F)F)cc2)nc2cc(Oc3ccnc(-c4ncc(C(F)(F)F)[nH]4)c3)ccc21", 3.92],
  ["CO[C@H]1C[C@@H]2CC[C@@H](C)[C@@](O)(O2)C(=O)C(=O)N2CCCC[C@H]2C(=O)O[C@H]([C@H](C)C[C@@H]2CC[C@@H](OCCO)[C@H](OC)C2)CC(=O)[C@H](C)/C=C(\\C)[C@@H](O)[C@@H](OC)C(=O)[C@H](C)C[C@H](C)/C=C/C=C/C=C/1C [Everolimus (RAD001)]", 0.75]
]}
